These measurements were taken from paper PMC3524758.

target under test: sigma-2 receptor (Rattus norvegicus)
Construct: from tissue; host or cells: rat liver (male Sprague-Dawley rats)
Sequence (Q5U3Y7 1-176): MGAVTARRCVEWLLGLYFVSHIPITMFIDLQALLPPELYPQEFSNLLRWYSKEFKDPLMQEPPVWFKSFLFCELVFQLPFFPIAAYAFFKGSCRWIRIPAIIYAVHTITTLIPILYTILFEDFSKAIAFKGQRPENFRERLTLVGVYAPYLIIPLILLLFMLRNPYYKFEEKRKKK
run description: Sigma-2 receptor competitive binding assay ([3H]DTG, rat liver membranes, (+)-pentazocine mask)

molecule	Ki, nM
Oc1ccc(C2CCN(C3CCCC[C@H]3O)CC2)cc1I (single isomer, unassigned; (+)) [(+)-IV-OH]	147

====

target under test: sigma-1 receptor (Rattus norvegicus)
Construct: from tissue; host or cells: rat brain without cerebellum (male Sprague-Dawley rats)
Sequence (Q9R0C9 whole entry): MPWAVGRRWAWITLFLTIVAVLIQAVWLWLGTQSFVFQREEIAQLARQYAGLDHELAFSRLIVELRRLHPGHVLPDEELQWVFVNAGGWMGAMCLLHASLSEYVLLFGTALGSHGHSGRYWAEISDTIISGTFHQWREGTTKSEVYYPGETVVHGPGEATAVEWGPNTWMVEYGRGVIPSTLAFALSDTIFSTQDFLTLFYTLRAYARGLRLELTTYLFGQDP
run description: Sigma-1 receptor competitive binding assay ((+)-[3H]pentazocine, rat cerebral membranes)
pKi: −log10 of the molar value.
endpoint name: pKi

compound	value measured
Oc1ccc(C2CCN(C3CCCC[C@H]3O)CC2)cc1I (single isomer, unassigned; (+)) [(+)-IV-OH]	7.64
